assay: Elimination half life in CD-1 mouse at 1 mg/kg, iv or 3 mg/kg, po; assay type: ADME, organism-based; conditions: in vivo, read-out: beta t1/2 (converted)
The entries below come with measured half-life values attached.
Report the value in h with no unit label.

{"molecule": "C[C@H](CCCOc1ccccc1Cn1c(C(F)(F)F)cnc1-c1ccc(C(F)(F)F)cc1)CC(=O)O", "attribute-measured": "half-life", "reported": 5.8}

Exercise: Need half-life, item C[C@H](CCCOc1ccccc1Cn1c(Cl)cnc1-c1ccc(C(F)(F)F)cc1)CC(=O)O
Solution: 3.5

---

Molecular target: Peroxisome proliferator-activated receptor alpha (Homo sapiens)
Sequence (Q07869 whole entry): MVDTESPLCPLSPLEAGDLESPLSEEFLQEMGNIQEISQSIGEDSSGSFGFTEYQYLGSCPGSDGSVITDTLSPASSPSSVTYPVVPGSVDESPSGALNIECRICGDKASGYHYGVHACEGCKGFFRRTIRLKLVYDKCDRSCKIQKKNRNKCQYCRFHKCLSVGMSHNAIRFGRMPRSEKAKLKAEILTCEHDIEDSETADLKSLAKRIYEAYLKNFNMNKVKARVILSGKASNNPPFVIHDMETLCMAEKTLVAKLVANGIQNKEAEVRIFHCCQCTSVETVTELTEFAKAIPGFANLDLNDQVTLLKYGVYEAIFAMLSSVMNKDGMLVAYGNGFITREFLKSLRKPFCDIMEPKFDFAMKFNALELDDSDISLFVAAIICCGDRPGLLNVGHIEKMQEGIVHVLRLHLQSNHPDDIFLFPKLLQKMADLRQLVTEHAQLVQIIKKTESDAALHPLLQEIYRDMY
Experiment: Transactivation of GAL4-fused human PPARalpha expressed in African green monkey CV1 cells by luciferase reporter gene assay
The entries below come with measured EC50 values attached.

{"molecule": "C[C@H](CCCOc1ccccc1Cn1c(C(F)(F)F)cnc1-c1ccc(C#N)cc1)CC(=O)O", "EC50": "> 100 µM"}

Exercise: Need EC50, item C[C@H](CCCOc1ccccc1Cn1c(Cl)cnc1-c1ccc(C(F)(F)F)cc1)CC(=O)O
Solution: > 100 µM

Exercise: Need EC50, item C[C@H](CCCOc1ccccc1Cn1c(C(F)(F)F)cnc1-c1ccc(C(F)(F)F)cc1)CC(=O)O
Solution: > 100 µM

---

molecular target: hERG (KCNH2) (Homo sapiens); test: Inhibition of human ERG expressed in HEK293 cells at 10 uM by semi-automatic patch clamp assay relative to control; format: cell-based; details: HEK293 cells that express hERG
Sequence (Q12809 whole entry): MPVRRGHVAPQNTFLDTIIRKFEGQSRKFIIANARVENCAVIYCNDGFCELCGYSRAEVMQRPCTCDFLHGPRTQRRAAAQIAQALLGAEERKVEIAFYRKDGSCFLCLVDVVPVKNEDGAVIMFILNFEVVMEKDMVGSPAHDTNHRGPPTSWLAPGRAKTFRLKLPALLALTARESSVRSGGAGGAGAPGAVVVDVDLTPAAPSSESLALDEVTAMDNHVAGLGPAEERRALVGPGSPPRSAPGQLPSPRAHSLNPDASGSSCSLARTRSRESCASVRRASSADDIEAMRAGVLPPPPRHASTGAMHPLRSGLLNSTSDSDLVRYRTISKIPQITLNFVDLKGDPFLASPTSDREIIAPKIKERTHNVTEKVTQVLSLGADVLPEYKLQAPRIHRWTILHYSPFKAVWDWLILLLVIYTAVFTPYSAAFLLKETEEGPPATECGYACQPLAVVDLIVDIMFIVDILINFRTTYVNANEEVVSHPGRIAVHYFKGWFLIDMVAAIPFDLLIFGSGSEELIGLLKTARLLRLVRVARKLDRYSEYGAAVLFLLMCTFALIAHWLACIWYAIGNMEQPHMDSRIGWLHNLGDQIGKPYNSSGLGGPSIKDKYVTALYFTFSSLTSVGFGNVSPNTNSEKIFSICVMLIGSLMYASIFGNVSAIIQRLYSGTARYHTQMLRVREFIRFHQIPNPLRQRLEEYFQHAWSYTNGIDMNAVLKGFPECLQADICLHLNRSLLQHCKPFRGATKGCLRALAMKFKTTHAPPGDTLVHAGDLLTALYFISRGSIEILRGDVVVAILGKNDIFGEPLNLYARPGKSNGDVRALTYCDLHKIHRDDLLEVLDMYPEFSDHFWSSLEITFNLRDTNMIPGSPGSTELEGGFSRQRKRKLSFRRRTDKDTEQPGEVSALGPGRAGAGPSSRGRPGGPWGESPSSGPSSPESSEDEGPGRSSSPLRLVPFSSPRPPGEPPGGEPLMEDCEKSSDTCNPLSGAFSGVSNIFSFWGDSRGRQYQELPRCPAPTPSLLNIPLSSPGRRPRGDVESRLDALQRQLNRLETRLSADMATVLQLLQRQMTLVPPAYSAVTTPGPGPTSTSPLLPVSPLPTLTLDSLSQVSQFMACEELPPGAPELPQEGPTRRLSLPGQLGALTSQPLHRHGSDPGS
# label = true if inhibition at 10 µM >= 10% else false

Previously resolved entries follow.
{"molecule": "C[C@H](CCCOc1ccccc1Cn1c(C(F)(F)F)cnc1-c1ccc(C#N)cc1)CC(=O)O", "label-value": "false"}
{"molecule": "C[C@H](CCCOc1ccccc1Cn1c(C(F)(F)F)cnc1-c1ccc(C(F)(F)F)cc1)CC(=O)O", "label-value": "false"}
{"molecule": "C/C(=C\\COc1ccccc1Cc1sc(C)nc1-c1ccc2oc(C)cc2c1)CCC(=O)O", "label-value": "true"}
{"molecule": "Cc1cnc(-c2ccc(C#N)cc2)n1Cc1ccccc1OCCC[C@@H](C)CC(=O)O", "label-value": "true"}
{"molecule": "Cc1nc(-c2cc(F)c(-c3ccco3)c(F)c2)c(Cc2ccccc2OCCC[C@@H](C)CC(=O)O)s1", "label-value": "false"}

Exercise: Could you tell me if the measured inhibition at 10 µM of C/C(=C\COc1ccccc1Cc1c(C)cnn1-c1ccc(C(F)(F)F)cc1)CCC(=O)O reaches 10% or more?
Solution: false

Exercise: Could you tell me if the measured inhibition at 10 µM of Cc1cc2cc(-c3ncc(C)n3Cc3ccccc3OCCCCCC(=O)O)ccc2o1 reaches 10% or more?
Solution: true
